assay: Protective index (PI) which is defined as the ratio of TD50 to the ED50 (ScMet).; assay type: functional
testReadout: PI
Answers are plain numbers.

Okay, here is my list. What is PI for each of these?
1. Nc1ccc(C(=O)NC2CCCCC2)cc1
2. CCCCNC(=O)c1ccc(N)cc1
3. CCCCCNC(=O)c1ccc(N)cc1

1. 1.5
2. 1.3
3. 1.2

----------
assay: Protective index (PI) which is defined as the ratio of TD50 to the ED50 (MES).; format: functional
testReadout: PI
Numbers only.

INSERT INTO assay_data (compound, reportedresult) VALUES
  ('CCCCCNC(=O)c1ccc(N)cc1', 1.6),
  ('Nc1ccc(C(=O)Nc2ccccc2)cc1', 2.2),
  ('Nc1ccc(C(=O)NC2CCCCC2)cc1', 2.8),
  ('CN(Cc1ccccc1)C(=O)c1ccc(N)cc1', 1.9),
  ('Nc1ccc(C(=O)NCc2ccccc2)cc1', 3.6);

Provide PI for all items below, preserving their order.
1. CC(NC(=O)c1ccc(N)cc1)c1ccccc1 (stereo not drawn)
2. CCCCNC(=O)c1ccc(N)cc1
3. CCCN(CCC)C(=O)c1ccc(N)cc1

1: 9.5; 2: 2.2; 3: 1.9

----------
assay: Evaluation of neurologic deficit by rotarod procedure in mice.; format: ADME, organism-based; conditions: mouse, in vivo
testReadout: TD50 (mg/kg)
Numbers only, in mg/kg.

Data request, read-out TD50, for `Nc1ccc(C(=O)NC2CCCCC2)cc1`
189

----------
assay: Evaluation of neurologic deficit by rotarod procedure in mice; format: ADME, organism-based; conditions: mouse, in vivo
testReadout: TD50 (mg/kg)
Numbers only, in mg/kg.

What value of TD50 has been recorded for this entry: `CCCCCNC(=O)c1ccc(N)cc1`
68.5

----------
Hi there, I'd appreciate the recorded PI for every entry that follows.
test: Protective index (PI) which is defined as the ratio of TD50 to the ED50 (ScMet).; type: functional
Answers are plain numbers.

These recorded examples may help you get a feel for the data.
INSERT INTO assay_data (molecule, testreadout, reportedresult) VALUES
  ('CC(NC(=O)c1ccc(N)cc1)c1ccccc1 (stereo not drawn)', 'PI', 4.1),
  ('Nc1ccc(C(=O)Nc2ccccc2)cc1', 'PI', 1.9);

Here is the next item to consider.
Field request: PI | item: `CN(Cc1ccccc1)C(=O)c1ccc(N)cc1`
1.2
